Data credit: ChEMBL document CHEMBL1201862

System: Malme-3M
Test: NCI tumour cell line growth inhibition, 48 h
Calls of active or inactive are those of the source. Cut-off read from the data, not from the text of the source: active = GI50 up to about 1.1 µM and inactive = higher.
Classes used: 1 (yes) (active), 0 (no) (inactive)

{"Compound": "C(=C\\c1cc(-c2ccc3ccccc3n2)nc2ccc3ccccc3c12)/c1ccc2ccccc2n1", "Answer Label": "0 (no)"}
{"Compound": "Nc1nnc(N)n1NC(=O)C(=O)Nc1ccc([N+](=O)[O-])cc1", "Answer Label": "0 (no)"}
{"Compound": "CCCCOC(=O)C(NC(C(=O)OCCCC)c1cc(C(C)(C)C)c(O)c(C(C)(C)C)c1)c1cc(C(C)(C)C)c(O)c(C(C)(C)C)c1 (centres undefined)", "Answer Label": "0 (no)"}
{"Compound": "CN(Cc1cnc2nc(N)nc(N)c2n1)c1ccc(C(=O)NCCCC(=O)O)cc1", "Answer Label": "0 (no)"}
{"Compound": "COC(=O)C1=COC2OC3/C(=C\\c4ccc(O)c(OC)c4)C(=O)OC34C=CC1C24 (centres undefined)", "Answer Label": "0 (no)"}
{"Compound": "CN(CCCCCl)P(=O)(OCC1=CC(=O)c2ccccc2C1=O)OC[C@H]1O[C@@H](n2cc(F)c(=O)[nH]c2=O)C[C@@H]1O (some centres undefined)", "Answer Label": "1 (yes)"}
{"Compound": "NCCNC(=S)S", "Answer Label": "0 (no)"}
{"Compound": "CCCCOP(C)(=O)C(NC(=O)OCC)(C(F)(F)F)C(F)(F)F (centres undefined)", "Answer Label": "0 (no)"}
{"Compound": "O=S(=O)(O)c1ccc(-c2nnc(-c3ccccn3)nc2-c2ccc(S(=O)(=O)O)o2)o1", "Answer Label": "0 (no)"}
{"Compound": "CC12CC3c4ccccc4CN1C3(c1ccccc1)OC2=O (centres undefined)", "Answer Label": "0 (no)"}
{"Compound": "CO[C@H]1C[C@](C)(O)Cc2cc3c(c(O)c21)C(=O)c1c(O)cc2c(c1C3=O)O[C@@H]1O[C@@]2(C)[C@H](O)[C@@H](N(C)C)[C@@H]1O", "Answer Label": "1 (yes)"}
{"Compound": "NC(=O)C1(c2ccccc2)Nc2ccccc2S1 (centres undefined)", "Answer Label": "0 (no)"}
{"Compound": "C/C(CC(=O)Nc1cccc(C)c1C)=N\\NC(N)=S", "Answer Label": "0 (no)"}
{"Compound": "CC(=O)CC1CCC(=O)/C=C/C(=O)OC(CC(C)=O)CCC(=O)/C=C/C(=O)O1 (centres undefined)", "Answer Label": "0 (no)"}
{"Compound": "CCCC12Cc3c(OC)ccc(OC)c3CC(Cc3c(OC)ccc(OC)c31)C2=O (centres undefined)", "Answer Label": "0 (no)"}
{"Compound": "CC(C)(C)NN=C1C(C)(C)C(=NNC(C)(C)C)C1(C)C", "Answer Label": "0 (no)"}
{"Compound": "Cc1ccc(S(=O)(=O)N/N=C(/CC(=O)c2c(C)[n+]([O-])c3ccccc3[n+]2[O-])C(=O)Nc2ccccc2C)cc1", "Answer Label": "0 (no)"}
{"Compound": "COc1cc2cc(C(=O)N3CC(CCl)c4c3cc(N(C)C)c3ccccc43)[nH]c2c(OC)c1OC (centres undefined)", "Answer Label": "1 (yes)"}
{"Compound": "CCC(C)C(C(=O)N/N=C1/SCC(=O)N1c1ccccc1)C(=O)N/N=C1/SCC(=O)N1c1ccccc1 (centres undefined)", "Answer Label": "0 (no)"}
{"Compound": "O=c1[nH]c(-c2ccc(-c3nc4cc([N+](=O)[O-])ccc4c(=O)[nH]3)cc2)nc2cc([N+](=O)[O-])ccc12", "Answer Label": "0 (no)"}
{"Compound": "C[As+](C)(c1ccc(Br)c([N+](=O)[O-])c1)c1ccc(Br)c([N+](=O)[O-])c1", "Answer Label": "0 (no)"}
{"Compound": "COCN1C(N)=C(C(=O)OC(C)(C)C)C2=CC(=O)C=CC21C (centres undefined)", "Answer Label": "0 (no)"}
{"Compound": "Cc1ccc(N(C(=O)CC(=O)N2N=C(c3ccccc3)C(/N=N/c3ccc([N+](=O)[O-])cc3)C2=O)C(=O)c2ccc(Cl)cc2)cc1 (centres undefined)", "Answer Label": "0 (no)"}
{"Compound": "O=C(O)c1ccc(C(=O)O)c(C(=O)Nc2ccc3c(c2)C(=O)c2ccccc2-3)c1", "Answer Label": "0 (no)"}
{"Compound": "CNc1c2cccc(C)c2nc2c(C(=O)NCCN(C)C)cccc12", "Answer Label": "1 (yes)"}
{"Compound": "ClCc1nnc2n1-c1ccc(Cl)cc1SC2", "Answer Label": "0 (no)"}
{"Compound": "Cc1ccc(SC2C(=O)C3CC(OCc4ccccc4)C2(C)C3(C)C)cc1 (centres undefined)", "Answer Label": "0 (no)"}
{"Compound": "CC(=O)N1CCn2c1nc1cc(Cl)ccc12", "Answer Label": "0 (no)"}
{"Compound": "N#CC(c1ccc(Cl)cc1)c1cccc(C(C#N)c2ccc(Cl)cc2)n1 (centres undefined)", "Answer Label": "0 (no)"}
{"Compound": "Cc1ccccc1NC(=O)C(=O)C(C#N)c1ccc(Cl)cc1 (centres undefined)", "Answer Label": "0 (no)"}
{"Compound": "O=C(c1cc(=O)c2ccc(O)cc2o1)c1ccc(Cl)cc1Cl", "Answer Label": "0 (no)"}
{"Compound": "Nc1ncnc2c1nc(Cl)n2C1OC(CO)C(O)C1O (centres undefined)", "Answer Label": "0 (no)"}
{"Compound": "COc1ccc([C@@]23Oc4cc(OC)cc(OC)c4[C@]2(O)[C@H](O)[C@H](C(=O)N(C)C)[C@H]3c2ccccc2)cc1 [ROCAGLAMIDE]", "Answer Label": "1 (yes)"}
{"Compound": "COc1cc2c3c(n(C)c(=O)c2cc1OC)-c1cc2c(cc1/C3=C\\CCCCl)OCO2", "Answer Label": "0 (no)"}
{"Compound": "C[C@@H](O)CCC(=O)c1ccoc1", "Answer Label": "0 (no)"}
{"Compound": "Cc1c(-c2ccc(O)cc2)n(CCCCCCNCCOC(=O)NCCCc2ccc(N(CCCl)CCCl)cc2)c2ccc(O)cc12", "Answer Label": "0 (no)"}
{"Compound": "Cc1nn2c(=O)n(-c3cccc(-n4nnc5c(-c6ccccc6)c(C)nn5c4=O)c3C)nnc2c1-c1ccccc1", "Answer Label": "0 (no)"}
{"Compound": "COc1ccc(CC(C)NCC(O)c2ccc(O)c(NC=O)c2)cc1 (centres undefined)", "Answer Label": "0 (no)"}
{"Compound": "COc1ccc(C2SC(=N)Nc3c2c(C)nn3C(=O)c2ccc(Cl)cc2)cc1 (centres undefined)", "Answer Label": "0 (no)"}
